assay_overview: qHTS for Inhibitors of human tyrosyl-DNA phosphodiesterase 1 (TDP1): qHTS in cells in absence of CPT; also: nearly all actives have a fitted effect of over 55% in size
condition_description: DT40 Tdp1-/- hTDP1 cells, no CPT, ATP luminescence, 48 h
The campaign covered roughly 420,000 compounds. About 64,000 (15%) were called active. Inconclusive results (about 27%) are left out. Calls follow the shape of the dose curve; as a rule, active = well fitted inhibition curve with a large enough effect; inconclusive = small, poorly fitted or top-dose-only effect; inactive = flat fitted curve, though single readings scatter. A selection follows.
Outcome codes: 1 (yes) for active, 0 (no) for inactive

molecule	class
NS(=O)(=O)c1ccc2nc(NC(=O)COc3ccccc3)sc2c1	0 (no)
COc1cc(C2CC(=O)Oc3cc(OC)c(OC)c(OC)c32)cc(OC)c1OC (stereo unspecified)	0 (no)
COc1ccc(Br)c2c1C(=O)CC2	0 (no)
N#Cc1ccc(OCC(=O)Nc2nc(-c3ccccn3)cs2)cc1	1 (yes)
COc1ccc(OCC(=O)Nc2nnc(-c3ccco3)s2)cc1	0 (no)
O=C(COc1ccccc1F)NC1CC1	0 (no)
COc1cc(OC)c2c(c1)OC(=O)CC2c1cc(OC)c(OC)c(OC)c1 (stereo unspecified)	0 (no)
COc1ccc(NC(=O)N(C)C[C@H]2Oc3ncc(C#C[C@@H](C)O)cc3C(=O)N([C@H](C)CO)C[C@H]2C)cc1	0 (no)
CC(NC(=O)c1ccco1)C(=O)Nc1nc(-c2ccccn2)cs1 (stereo unspecified)	1 (yes)
Cc1cnc(NC(=O)CSc2nnc(-c3ccccc3)n2Cc2ccccc2)s1	0 (no)
COc1cc(C2OC(c3cc(OC)c(OC)c(OC)c3)C(C)C2C)cc(OC)c1OC (stereo unspecified)	1 (yes)

---

assay_overview: qHTS for Inhibitors of human tyrosyl-DNA phosphodiesterase 1 (TDP1): qHTS in cells in absence of CPT; also: nearly all actives have a fitted effect of over 55% in size
condition_description: DT40 Tdp1-/- hTDP1 cells, no CPT, ATP luminescence, 48 h
Out of some 420,000 compounds screened, about 64,000 (15%) were called active. Not shown: some 27% with an inconclusive outcome. The call rests on the fitted dose curve; in most records, active means well fitted inhibition curve with a large enough effect; inconclusive means small, poorly fitted or top-dose-only effect; inactive means flat fitted curve, though single readings scatter. Not all results are given here.
Outcome codes: active, inactive

molecule	class
COc1ccc(NC(=S)N2CCc3cc(OC)c(OC)cc3C2)cc1	inactive
CCOc1ccc(C2C(C#N)=C(N)N(N(C)C)C3=C2C(=O)CCC3)cc1 (stereo unspecified)	inactive
Cc1ccc(C(C)C)cc1OCCN1CCCC1	inactive
COc1ccccc1C1C(C(N)=O)=C(C)Nc2nc(CCCO)nn21 (stereo unspecified)	inactive
Cc1ccc(NC(=O)N2CCC(O)(c3cccnc3)CC2)cc1	inactive
COc1ccc(Nc2ncc3c(n2)CCN(C(=O)OC(C)(C)C)C3)cc1	active
O=[N+]([O-])c1ccccc1OCCCCN1CCCCC1	inactive
Cc1ccc(C(C)(C)C)c(OCCCCN2CCCC2)c1	active
COc1ccccc1NC(=O)C1=C(C)NC(=O)NC1c1ccc(C)s1 (stereo unspecified)	inactive
CC[C@H](C)[C@@H](C(=O)N1CCNCC1)n1cc([C@@H](N)Cc2ccc(O)cc2)nn1	inactive
Cc1nc(-c2ccc(Cl)cc2)sc1C1(C)CC(c2ccccc2F)=NO1 (stereo unspecified)	inactive

---

assay_overview: qHTS for Inhibitors of human tyrosyl-DNA phosphodiesterase 1 (TDP1): qHTS in cells in absence of CPT; also: nearly all actives have a fitted effect of over 55% in size
condition_description: DT40 Tdp1-/- hTDP1 cells, no CPT, ATP luminescence, 48 h
About 64,000 (15%) of roughly 420,000 compounds were called active. Inconclusive results (about 27%) are left out. Calls come from the whole dose curve; as a rule, active = well fitted inhibition curve with a large enough effect; inconclusive = small, poorly fitted or top-dose-only effect; inactive = flat fitted curve, though single readings scatter. Not all results are given here.
Outcome codes: y for active, n for inactive

compound	class
Cc1ccc(NS(=O)(=O)c2cn(C)c(=O)n(C)c2=O)c(C)c1	n
C[C@H]1CN([C@@H](C)CO)C(=O)CCCn2nncc2CO[C@@H]1CN(C)S(=O)(=O)c1cccc(C#N)c1	n
Cc1ccc(C2(C)NC(=O)N(CC(=O)N3CC(=O)Nc4ccccc43)C2=O)cc1 (stereo not drawn)	n
CSc1nc(N(C)NC(=O)c2cccc(C)c2)c2ccccc2n1	y
C/C=C\C=C\C(=O)N1CC2(CC(c3cccc(NC(=O)/C(C)=C\C)c3)=NO2)C[C@H]1C(N)=O (stereo partly drawn)	n
COc1cc(C(=O)OCC(=O)NC23CC4CC(CC(C4)C2)C3)cc(OC)c1OC	y
Cc1cc(C)n2nc(C(=O)OC(C)C(=O)c3cc(C)c(C)cc3C)nc2n1 (stereo not drawn)	n
O=S1(=O)C[C@@H](N2CCN(CCO)CC2)[C@H](COCc2ccccc2)N1	n
Cc1cc(C)nc(S/C=C/C(=O)c2ccccc2)n1	y
C/C(=N\NC(=O)c1nc(C)cc(C)n1)c1ccccc1	n
NC(=O)C1CCCN(CC(=O)N2CCN(c3ccccc3)CC2)C1 (stereo not drawn)	n
Cc1nc2ccccc2c(=O)n1NC(=O)c1ccccc1	n
O=C(Nn1cnc2ccccc2c1=O)c1ccccc1	n
O=C(O)c1ccccc1-c1ccccc1C(=O)Nc1ccccc1Br	n
COC(=O)CNC(=O)c1ccccc1F	n
COC1=CC(=O)OC(C)(c2ccccc2)C1 (stereo not drawn)	n
CCN1CCN(C(=O)Cn2nc(C)n3c(cc4c(OC)cccc43)c2=O)CC1	n
CCOc1ccccc1NC(=O)NC1CCCCCCC1	n
CCc1nnc(NC(=O)CSc2nnc(Cc3ccccc3)n2-c2ccc(OC)cc2)s1	n
O=C(COC(=O)c1ccc(Br)o1)NC12CC3CC(CC(C3)C1)C2	n
Cc1ccc(N/C=C/C(=O)c2ccccc2)cc1C	n
CN(NC(=O)c1ccccc1F)c1nc(C(F)(F)F)nc2ccccc12	y
Cc1ccc(S(=O)(=O)NC(=O)c2cccc(C)c2)cc1	n

---

assay_overview: qHTS for Inhibitors of human tyrosyl-DNA phosphodiesterase 1 (TDP1): qHTS in cells in absence of CPT; also: nearly all actives have a fitted effect of over 55% in size
condition_description: DT40 Tdp1-/- hTDP1 cells, no CPT, ATP luminescence, 48 h
The whole screen tested about 420,000 compounds, of which about 64,000 (15%) were called active. Inconclusive results (about 27%) are left out. Calls follow the shape of the dose curve; as a rule, active = well fitted inhibition curve with a large enough effect; inconclusive = small, poorly fitted or top-dose-only effect; inactive = flat fitted curve, though single readings scatter. Only a sample is shown.
Outcome codes: active, inactive

compound	class
COCCN1CCN(C(=O)c2sc3ncnc(NCC4CCCO4)c3c2C)CC1 (stereo unspecified)	inactive
N=C1c2ccccc2-c2ccccc21	inactive
Cc1ccc(Cl)cc1N1CCN(C(=O)c2cccn3c(=O)c4cc(Cl)ccc4nc23)CC1	inactive
CCCNc1ncnc2sc(C)c(C)c12	active
CCOC(=O)N1CCN(C(=O)c2ccc3nc4cc(Cl)ccc4c(=O)n3c2)CC1	inactive
COc1ncnc2c1ncn2CCCNCCN1CCOCC1	inactive
O=C(NCc1ccccc1)[C@@H]1CSC2c3ccccc3C(=O)N21 (stereo partly specified)	inactive
Cc1ccccc1NC(=O)Cn1c(=O)n(Cc2ccco2)c(=O)c2ccc(C(=O)NC3CCCC3)cc21	inactive
COc1ccccc1C1C(C(=O)N2CCCCC2)=C(C)Nc2nc3ccccc3n21 (stereo unspecified)	inactive
CN(C)/N=C/c1cc(Cl)cc([N+](=O)[O-])c1O	inactive
O=C(CN(C(=O)c1csnn1)c1cccc(Cl)c1)NC1CCCC1	inactive

---

assay_overview: qHTS for Inhibitors of human tyrosyl-DNA phosphodiesterase 1 (TDP1): qHTS in cells in absence of CPT; also: nearly all actives have a fitted effect of over 55% in size
condition_description: DT40 Tdp1-/- hTDP1 cells, no CPT, ATP luminescence, 48 h
Out of some 420,000 compounds screened, about 64,000 (15%) were called active. Not shown: some 27% with an inconclusive outcome. The call rests on the fitted dose curve; in most records, active means well fitted inhibition curve with a large enough effect; inconclusive means small, poorly fitted or top-dose-only effect; inactive means flat fitted curve, though single readings scatter. These entries were drawn from the full list. Square brackets hold non-standard residues; d marks the D form. Peptide text beside a SMILES is read from it. ξ: configuration not given here. Ac5c = NC1(C(=O)O)CCCC1; ξS = NC(CO)C(=O)O
Outcome codes: active, inactive

molecule	class
CC(C)CN(C(=O)Cn1c(=O)cnc2ccccc21)C1CCS(=O)(=O)C1 (configuration not stated)	inactive
NC(=O)CSc1nnc(NC(=O)c2ccc(Br)o2)s1	inactive
Cc1cc(NC(=O)Nc2c[nH]c(=O)[nH]c2=O)ccc1Br	inactive
COCCNc1nc(N)c([N+](=O)[O-])c(N2CCCCCC2)n1	inactive
C=CCOc1ccccc1CNn1c(C)n[nH]c1=S	inactive
CCCN(CC(=O)Nc1ccccc1C)C(=O)c1cc(=O)[nH]c2ccccc12	inactive
CCOC(=O)C(CO)NC(=O)C1(NC(C)=O)CCCC1 (configuration not stated) (Ac-[Ac5c]-[ξS]-OEt)	inactive
CCCN(CC(=O)Nc1ccccc1C)C(=O)c1ccc2[nH]c3c(c2c1)CC(C)CC3 (configuration not stated)	active
O=S(=O)(NC1CC1)c1ccc(F)c(F)c1	inactive
COC(=O)Nc1ncc(CN2CCCCC2)s1	inactive
CNC(=O)CN1C(=O)c2cccnc2Sc2ccccc21	inactive
CCN(CC)CCCC(C)Nc1ccnc2cc(Cl)ccc12 (configuration not stated)	active
CCOCCCNC(=O)C(NC(=O)c1ccc(=O)[nH]c1)c1ccc(Cl)cc1 (configuration not stated)	inactive
Cc1nc(Nc2ccccc2C)c2cnn(C)c2n1	inactive
O=C(CSc1nnc(-c2ccoc2)o1)N1CCOCC1	inactive
O=C1CCCc2c1[nH]c1ccc(Br)cc21	inactive
CCSc1nnc(NC(=O)c2ccc(C)cc2)s1	inactive
CC1CN(C(=O)CCC(=O)NCc2cccnc2)c2ccccc2O1 (configuration not stated)	inactive
COC(=O)C(CC(=O)Nc1cc(C)ccc1C)Nc1ccccc1OC (configuration not stated)	inactive
CCSc1ncc(Cl)c(C(=O)Nc2cc(C)ccc2C)n1	inactive
FC(F)(F)c1cccc(-c2cn[nH]c2C2CCCN(Cc3cccn3-c3ccccn3)C2)c1 (configuration not stated)	inactive
Clc1ccc(Cn2ncc3c(NCc4cccnc4)ncnc32)cc1	active
Cc1cccc2cc3c(N)c(C(=O)N4CCCc5ccccc54)sc3nc12	active
COc1ccccc1NC(=O)C1=C(C)NC2=C(C(=O)CCC2)C1c1ccc(C)o1 (configuration not stated)	inactive
Cn1sc(=O)c2cc(S(=O)(=O)NC3CC3)ccc21	active
Cc1cccc(-n2c(Cc3cc(=O)[nH]c(=O)[nH]3)nnc2SC(C)C)c1	inactive
COc1cc(OC)cc(C(=O)NCC(=O)N2CCCCCCC2)c1	inactive
Cc1ccc(NC(=O)c2nc(S(=O)(=O)Cc3cccc(C)c3)ncc2Cl)cc1	active
O=C(CNC(=O)c1ccccc1Br)NCCSc1ccc(Br)cc1	active
CC(C)NC(=O)Nc1cccc2c1O[C@@H](CN(C)S(=O)(=O)c1ccc(F)cc1)[C@@H](C)CN([C@H](C)CO)C2=O	inactive
O=C(c1cc(-c2ccc(O)cc2)on1)N1CCCc2ccccc21	inactive
COc1cccc(NC(=O)CN2C(=O)c3ccccc3Sc3ncccc32)c1	active
Cc1occc1C(=O)N1CCCc2ccccc21	inactive
OC[C@@H]1CN(Cc2ccc(Cl)cc2)C[C@H](n2cnc3c(NCc4ccncc4)ncnc32)O1	inactive
COc1ccc(N2CCN(C(=O)[C@@H](NC(=O)c3cc(OC)cc(OC)c3)C(C)C)CC2)cc1	active
CC(=O)NC(C)(C)C1CC=C(C)/C(=N\O)C1 (configuration not stated)	inactive
Cc1cc(NCc2cccnc2)no1	inactive
O=[N+]([O-])/C=C1\CCCCCN1	inactive
O=C(NCc1ccc(F)cc1F)[C@@H]1CCCN1C(=O)[C@@H]1CCCN1C(=O)c1cccc(Cl)c1	inactive
COc1ccccc1NC(=O)CCC(=O)N1CC(C)Oc2ccc(C)cc21 (configuration not stated)	active
CCCCCC1CCC(c2nnc(SCC(C)=O)o2)CC1 (configuration not stated)	inactive
COc1ccc(CCNC(=S)N2CCN(S(=O)(=O)c3ccc(F)cc3)CC2)cc1	inactive
CN(CC(=O)Nc1ccccc1C(F)(F)F)C(=O)Cc1ccccc1F	inactive
c1ccc(CNc2ncncc2-c2cccnc2)cc1	inactive
O=S(=O)(NC1CC1)c1ccc(Cl)cc1	inactive
O=C(O)CCCCCCCCCC[n+]1ccccc1	inactive
O=C(NC(=O)N1CCSCC1)c1c(Cl)cccc1Cl	inactive

Values compiled from PubChem BioAssay AID686978.
